Provide the reported CC50 of each item.
- Assay Summary: in vitro
- Run Conditions: human, CC50, uninfected A549 cells, CellTiter-Glo

Below are worked cases with known answers.
O=C1c2c(O)c(=O)ccn2N2CN1C/C=C\CCc1ccncc1[C@H]2c1ccccc1 (single isomer, unassigned) [Compound 35A] = > 2000 nM
O=C1c2c(O)c(=O)ccn2N2CN1C/C=C/CCc1cc(F)c(F)cc1[C@@H]2c1ccccn1 (single isomer, unassigned) [Compound 58A] = > 2000 nM
COC[C@H]1/C=C/COc2ccccc2[C@@H](c2ccccc2)N2CN1C(=O)c1c(O)c(=O)ccn12 (single isomer, unassigned) [Compound 150A] = > 100 nM

For the 3 molecules below, give their CC50 values.
1. C[C@H]1/C=C/COc2c(F)cccc2[C@H](c2ccccc2)N2CN1C(=O)c1c(O)c(=O)ccn12 (single isomer, unassigned) [Compound 141BB]
2. O=C1c2c(O)c(=O)ccn2N2CN1C/C=C\COc1cc(F)c(F)c3c1[C@H]2c1ccccc1SC3 (single isomer, unassigned) [Compound 140D]
3. C[C@@H]1/C=C/COc2ccccc2[C@H](c2ccccc2)N2CN1C(=O)c1c(O)c(=O)ccn12 (single isomer, unassigned) [Compound 29BA]

Response:
["> 20000 nM", "> 50 nM", "83100 nM"]

Answer for every listed entry: what is its CC50? The entries follow.
1. O=C1c2c(O)c(=O)ccn2N2CN1CCC/C=C\c1ccccc1[C@H]2c1ccccc1 (single isomer, unassigned) [Compound 54A]
2. O=C1c2c(O)c(=O)ccn2N2CN1C[C@H]1C[C@@H]1COc1cccc3c1[C@H]2c1ccccc1SC3 [Compound 87BA]

Response:
["> 2000 nM", "> 200 nM"]

Would you mind giving CC50 for every molecule in the list below?
1. O=C1c2c(O)c(=O)ccn2N2CN1CCCCCc1ccccc1C2c1ccccn1 (stereo not drawn)
2. CC[C@H]1/C=C/COc2c(ccc(F)c2F)[C@H](c2ccccn2)N2CN1C(=O)c1c(O)c(=O)ccn12 (single isomer, unassigned) [Compound 160BA]
3. O=C1c2c(O)c(=O)ccn2N2CN1C[C@H]1C[C@@H]1COc1c(F)cccc1[C@@H]2c1ccccc1 (single isomer, unassigned) [Compound 125BB]
4. O=C1c2c(O)c(=O)ccn2N2CN1CCC/C=C\c1ccccc1[C@@H]2c1ccccc1 (single isomer, unassigned) [Compound 54B]

Response:
> 2000 nM
> 100 nM
> 200 nM
> 2000 nM

* * *

- Assay Summary: in vitro
- Run Conditions: human, CC50, uninfected A549 cells, CellTiter-Glo
Kindly state CC50 for each of the entries shown.

Consider the worked cases shown below.
O=C1c2c(O)c(=O)ccn2N2CN1C1(/C=C/COc3c(ccc(F)c3F)[C@H]2c2ccccc2)CC1 [Compound 102A] = > 100 nM
O=C1c2c(O)c(=O)ccn2N2CN1C/C=C\COc1c(ccc(F)c1F)[C@@H]2c1ccccc1C(F)F (single isomer, unassigned) [Compound 165B] = > 100 nM
O=C1c2c(O)c(=O)ccn2N2CN1CC/C=C\COc1cccc3c1[C@H]2c1ccccc1SC3 (single isomer, unassigned) [Compound 37B] = > 200 nM
O=C1c2c(O)c(=O)ccn2N2CN1C/C=C\CCc1ccccc1[C@@H]2c1ccccc1 (single isomer, unassigned) [Compound 21B] = > 1000 nM
O=C1c2c(O)c(=O)ccn2N2CN1C1(/C=C/COc3c(ccc(Cl)c3Cl)[C@@H]2c2ccccc2)CC1 (single isomer, unassigned) [Compound 113B] = > 200 nM

Required: CC50, one value per molecule below.
1. O=C1c2c(O)c(=O)ccn2N2CN1C/C=C/COc1cc(F)c(F)c3c1[C@@H]2c1ccccc1SC3 (single isomer, unassigned) [Compound 140A]
2. C[C@@H]1C/C=C/COc2c(F)cccc2[C@@H](c2ccccc2)N2CN1C(=O)c1c(O)c(=O)ccn12 (single isomer, unassigned) [Compound 100AB]

Response:
1. 9960 nM
2. > 200 nM

Your task in this section: give CC50 for each listed record.
1. O=C1c2c(O)c(=O)ccn2N2CN1CCOCCOc1ccccc1[C@H]2c1ccccc1 (single isomer, unassigned) [Compound 99A]
2. O=C1c2c(O)c(=O)ccn2N2CN1C[C@H]1C[C@@H]1COc1c(F)cccc1[C@H]2c1ccccc1 (single isomer, unassigned) [Compound 125AB]
3. O=C1c2c(O)c(=O)ccn2N2CN1C/C=C\COc1c(ccc(F)c1F)[C@H]2c1ccccc1C1CC1 (single isomer, unassigned) [Compound 136A]

Response:
1. > 1000 nM
2. > 200 nM
3. > 200 nM

Give CC50 for all molecules that follow.
1. O=C1c2c(O)c(=O)ccn2N2CN1CC/C=C\COc1cccc3c1[C@H]2c1ccccc1CC3 (single isomer, unassigned) [Compound 28A]
2. O=C1c2c(O)c(=O)ccn2N2CN1CCCC/C=C\c1cccc3c1[C@@H]2c1ccccc1CC3 (single isomer, unassigned) [Compound 86B]

Response:
1. > 20000 nM
2. > 2000 nM

* * *

- Assay Summary: in vitro
- Run Conditions: human, CC50, uninfected A549 cells, CellTiter-Glo
Assign CC50 to each entry below.

Would you please look over these solved cases?
O=C1c2c(O)c(=O)ccn2N2CN1C[C@H]1C[C@@H]1COc1ccccc1[C@@H]2c1ccccc1 (single isomer, unassigned) [Compound 80AA] = > 1000 nM
O=C1c2c(O)c(=O)ccn2N2CN1CCOC/C=C\c1cccc3c1[C@@H]2c1ccccc1CC3 (single isomer, unassigned) [Compound 83B] = > 200 nM
CC(C)[C@H]1/C=C/COc2cc(F)c(F)c3c2[C@@H](c2ccccc2SC3)N2CN1C(=O)c1c(O)c(=O)ccn12 (single isomer, unassigned) [Compound 169AA] = > 100 nM
O=C1c2c(O)c(=O)ccn2N2CN1C/C=C\CCc1ncccc1[C@@H]2c1ccccc1 (single isomer, unassigned) [Compound 24B] = > 1000 nM
O=C1c2c(O)c(=O)ccn2N2CN1CCCCCc1ccccc1C2c1ccccc1 (stereo not drawn) = > 4000 nM

Request: State its CC50 for this molecule: O=C1c2c(O)c(=O)ccn2N2CN1CC/C=C\COc1cc(F)c(F)c3c1[C@H]2c1ccccc1SC3 (single isomer, unassigned) [Compound 88B]
Response: > 200 nM

* * *

- Assay Summary: in vitro
- Run Conditions: human, CC50, uninfected A549 cells, CellTiter-Glo
I'd appreciate it if you could supply CC50 values for the items below.

Sample records with CC50:
C[C@H]1/C=C/COc2cc(F)c(F)c3c2[C@@H](c2ccccc2SC3)N2CN1C(=O)c1c(O)c(=O)ccn12 (single isomer, unassigned) [Compound 162B] = > 100 nM
O=C1c2c(O)c(=O)ccn2N2CN1C/C=C\COc1cc(C(F)F)ccc1[C@H]2c1ccccc1 (single isomer, unassigned) [Compound 94B] = > 1000 nM
O=C1c2c(O)c(=O)ccn2N2CN1C[C@@H]1C[C@@H]1COc1cccc3c1[C@H]2c1ccccc1SC3 (single isomer, unassigned) [Compound 118AB] = > 200 nM
CC[C@@H]1/C=C/COc2c(ccc(F)c2F)[C@@H](c2ccccc2)N2CN1C(=O)c1c(O)c(=O)ccn12 [Compound 101AB] = > 200 nM
O=C1c2c(O)c(=O)ccn2N2CN1C1(/C=C/COc3cccc4c3[C@@H]2c2ccccc2SC4)CC1 (single isomer, unassigned) [Compound 107A] = > 200 nM

Request: Output measured CC50 for this item: O=C1c2c(O)c(=O)ccn2N2CN1C1(/C=C/COc3cccc4c3[C@H]2c2ccccc2SC4)CCCC1 (single isomer, unassigned) [Compound 156A]
Response: > 100 nM

* * *

For each of the compounds below, state its CC50.
- Test system: Human lung carcinoma A549 cells
- Run Conditions: uninfected A549 cells, CellTiter-Glo

// below: answered compounds
O=C1c2c(O)c(=O)ccn2N2CN1C/C=C/CCc1c(F)cccc1C2c1cccc(F)n1 (single isomer, unassigned) [Compound 76A] = 43900 nM
O=C1c2c(O)c(=O)ccn2N2CN1CCCCCOc1cccc3c1[C@H]2c1ccccc1SC3 (single isomer, unassigned) [Compound 69B] = > 2000 nM
O=C1c2c(O)c(=O)ccn2N2CN1CCCCCOc1cccc3c1[C@@H]2c1ccccc1SC3 (single isomer, unassigned) [Compound 69A] = > 2000 nM
O=C1c2c(O)c(=O)ccn2N2CN1C/C=C\CCc1ccccc1C2c1ccncc1 (single isomer, unassigned) [Compound 52A] = > 2000 nM
O=C1c2c(O)c(=O)ccn2N2CN1C/C=C/CCc1c(F)cccc1C2c1cccc(F)n1 (single isomer, unassigned) [Compound 76B] = > 200 nM
O=C1c2c(O)c(=O)ccn2N2CN1C/C=C\CCc1ccccc1C2c1ccncc1 (single isomer, unassigned) [Compound 52B] = > 2000 nM

Request: Tell us which CC50 value is on record for O=C1c2c(O)c(=O)ccn2N2CN1C/C=C/CCc1ccccc1C2c1cccc(F)n1 (single isomer, unassigned) [Compound 78A]
Response: > 1000 nM
